- MEASURED_TARGET: p50 (in p50/RelA);RelA FL (in p50/RelAFL) (Mus musculus;Mus musculus, UniProt P25799;Q04207 39-350;19-549, |)
- Sequence (P25799 39-350, chain 1 of 2): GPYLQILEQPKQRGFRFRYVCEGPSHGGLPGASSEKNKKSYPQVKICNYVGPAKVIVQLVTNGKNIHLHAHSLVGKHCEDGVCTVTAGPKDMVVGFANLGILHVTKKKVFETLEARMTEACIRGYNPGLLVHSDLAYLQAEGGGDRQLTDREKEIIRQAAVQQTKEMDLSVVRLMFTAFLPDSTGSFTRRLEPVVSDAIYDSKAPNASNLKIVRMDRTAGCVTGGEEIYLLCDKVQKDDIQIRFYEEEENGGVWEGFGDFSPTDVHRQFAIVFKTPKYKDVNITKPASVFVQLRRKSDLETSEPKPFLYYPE
- Sequence (Q04207 19-549, chain 2 of 2): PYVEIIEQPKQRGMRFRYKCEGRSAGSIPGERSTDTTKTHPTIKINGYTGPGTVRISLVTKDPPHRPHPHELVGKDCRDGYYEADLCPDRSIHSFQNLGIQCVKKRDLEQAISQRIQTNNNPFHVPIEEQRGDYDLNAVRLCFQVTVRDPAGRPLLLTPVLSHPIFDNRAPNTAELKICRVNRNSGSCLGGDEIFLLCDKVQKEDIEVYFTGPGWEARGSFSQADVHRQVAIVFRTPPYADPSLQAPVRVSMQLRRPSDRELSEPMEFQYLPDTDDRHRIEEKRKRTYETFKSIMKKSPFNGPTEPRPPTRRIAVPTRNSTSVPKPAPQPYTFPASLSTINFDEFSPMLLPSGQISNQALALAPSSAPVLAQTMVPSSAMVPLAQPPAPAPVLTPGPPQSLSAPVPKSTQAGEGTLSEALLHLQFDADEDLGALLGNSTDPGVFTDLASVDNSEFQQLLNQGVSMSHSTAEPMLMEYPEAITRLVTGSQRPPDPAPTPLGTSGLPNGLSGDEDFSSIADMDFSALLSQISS
- EXPERIMENTAL_DETAILS: fluorescence anisotropy
pKd: −log10 of the molar value.
TEST_READOUT: pKd

>>> measured("GTAGACGTGCTCCCCCAGCACGTCTAC (structured_DNA, 5' 5AmMC6) [Random hairpin]")
6.89
